System: Staphylococcus aureus
test-method-notes: Antibacterial activity against methicillin-resistant Staphylococcus aureus 33591 by broth-microdilution method
Type: functional
Reported MIC values for a set of molecules

Quick one: MIC of `C=C1CO[C@H]2[C@H](C)[C@@H](O[C@@H]3O[C@H](C)C[C@H](N(C)C)[C@H]3O)[C@](C)(C[C@@H](C)C(=O)[C@H](C)[C@@H]3NC(=O)O[C@]3(C)[C@@H](CC)OC(=O)[C@@H]2C)OC1` ? > 64 µg/mL

Quick one: MIC of `C=C1CO[C@H]2[C@H](C)[C@@H](O[C@@H]3O[C@H](C)C[C@H](N(C)C)[C@H]3O)[C@](C)(C[C@@H](C)C(=N)[C@H](C)[C@@H](O)[C@](C)(O)[C@@H](CC)OC(=O)[C@@H]2C)OC1` ? > 64 µg/mL

* * *

Reported MIC values for a set of molecules
Test system: Haemophilus influenzae
test-method-notes: Antibacterial activity against ampicillin-susceptible Haemophilus influenzae by broth-microdilution method
Type: functional
Express it in µg/mL; write the number only.

C=C1CO[C@H]2[C@H](C)[C@@H](O[C@@H]3O[C@H](C)C[C@H](N(C)C)[C@H]3O)[C@](C)(C[C@@H](C)C(=N)[C@H](C)[C@@H](O)[C@](C)(O)[C@@H](CC)OC(=O)[C@@H]2C)OC1 ... 16

Quick one: MIC of `C=C1CO[C@H]2[C@H](C)[C@@H](O[C@@H]3O[C@H](C)C[C@H](N(C)C)[C@H]3O)[C@](C)(C[C@@H](C)C(=O)[C@H](C)[C@@H](O)[C@](C)(O)[C@@H](CC)OC(=O)[C@@H]2C)OC1` ? 64

Quick one: MIC of `C=C1CO[C@H]2[C@H](C)[C@@H](O[C@@H]3O[C@H](C)C[C@H](N(C)C)[C@H]3O)[C@](C)(C[C@@H](C)[C@H](N)[C@H](C)[C@@H](O)[C@](C)(O)[C@@H](CC)OC(=O)[C@@H]2C)OC1` ? 32

Quick one: MIC of `C=C1CO[C@H]2[C@H](C)[C@@H](O[C@@H]3O[C@H](C)C[C@H](N(C)C)[C@H]3O)[C@](C)(C[C@@H](C)C(=O)[C@H](C)[C@@H]3NC(=O)O[C@]3(C)[C@@H](CC)OC(=O)[C@@H]2C)OC1` ? 2

Quick one: MIC of `CC[C@H]1OC(=O)[C@H](C)[C@@H](O[C@H]2C[C@@](C)(OC)[C@@H](O)[C@H](C)O2)[C@H](C)[C@@H](O[C@@H]2O[C@H](C)C[C@H](N(C)C)[C@H]2O)[C@](C)(O)C[C@@H](C)C(=O)[C@H](C)[C@@H](O)[C@]1(C)O` ? 4

Quick one: MIC of `C=C1CO[C@H]2[C@H](C)[C@@H](O[C@@H]3O[C@H](C)C[C@H](N(C)C)[C@H]3O)[C@](C)(C[C@@H](C)/C(=N\O)[C@H](C)[C@@H](O)[C@](C)(O)[C@@H](CC)OC(=O)[C@@H]2C)OC1` ? 32

* * *

Reported MIC values for a set of compounds
Test system: Streptococcus pneumoniae
test-method-notes: Antibacterial activity against erythromycin-resistant Streptococcus pneumoniae 7701 expressing mef gene by broth-microdilution method
Assay type: functional
Express it in µg/mL; write the number only.

Observe how each entry below is paired with its result.
CC[C@H]1OC(=O)[C@H](C)[C@@H](O[C@H]2C[C@@](C)(OC)[C@@H](O)[C@H](C)O2)[C@H](C)[C@@H](O[C@@H]2O[C@H](C)C[C@H](N(C)C)[C@H]2O)[C@](C)(O)C[C@@H](C)C(=O)[C@H](C)[C@@H](O)[C@]1(C)O [ERYTHROMYCIN] ... 4
C=C1CO[C@H]2[C@H](C)[C@@H](O[C@@H]3O[C@H](C)C[C@H](N(C)C)[C@H]3O)[C@](C)(C[C@@H](C)C(=O)[C@H](C)[C@@H](O)[C@](C)(O)[C@@H](CC)OC(=O)[C@@H]2C)OC1 ... 0.25
C=C1CO[C@H]2[C@H](C)[C@@H](O[C@@H]3O[C@H](C)C[C@H](N(C)C)[C@H]3O)[C@](C)(C[C@@H](C)/C(=N\O)[C@H](C)[C@@H](O)[C@](C)(O)[C@@H](CC)OC(=O)[C@@H]2C)OC1 ... 0.25
C=C1CO[C@H]2[C@H](C)[C@@H](O[C@@H]3O[C@H](C)C[C@H](N(C)C)[C@H]3O)[C@](C)(C[C@@H](C)[C@H](N)[C@H](C)[C@@H](O)[C@](C)(O)[C@@H](CC)OC(=O)[C@@H]2C)OC1 ... 0.125

Continue with the next compound.
Quick one: MIC of `C=C1CO[C@H]2[C@H](C)[C@@H](O[C@@H]3O[C@H](C)C[C@H](N(C)C)[C@H]3O)[C@](C)(C[C@@H](C)C(=N)[C@H](C)[C@@H](O)[C@](C)(O)[C@@H](CC)OC(=O)[C@@H]2C)OC1` ? 0.25
